In this section we review reported log10(IC50) values for a set of compounds.
# Test system: Plasmodium falciparum
# procedure-text: Antiplasmodial activity against chloroquine-resistant Plasmodium falciparum K1 assessed as parasite growth inhibition after 24 hrs by [3H]-hypoxathine incorporation assay
# Format: functional, organism-based
# test-context: Plasmodium falciparum, K1
Note: values are log10 of IC50 expressed in nM.

Some compounds with recorded log10(IC50):
Q: Quick check: log10(IC50) of `CCCCCCCCn1ccc(=O)c(O)c1C` ?
A: 3.26

Q: Moving on to `Cc1c(OCc2ccccc2)c(=O)ccn1CCCCNc1ccnc2cc(Cl)ccc12`
A: 3.34

Then this compound:
Q: Quick check: log10(IC50) of `Cc1c(O)c(=O)ccn1CCCCCCNc1ccnc2cc(Cl)ccc12` ?
A: 2.20

* * *

# System: KB
# procedure-text: Cytotoxicity against human KB cells after 72 hrs by Alamar blue assay
# Type: cell-based
# test-context: Homo sapiens, KB, 72 h
In this section we review reported IC50 values for a set of molecules.
Give the quantity in µM, number only.

Some molecules with recorded IC50:
Q: Quick check: IC50 of COc1cc([C@@H]2c3cc4c(cc3[C@H](O)[C@H]3COC(=O)[C@H]23)OCO4)cc(OC)c1OC [PODOFILOX] ?
A: 0.0007

Q: Moving on to `Cc1c(OCc2ccccc2)c(=O)ccn1CCCCCCNc1ccnc2cc(Cl)ccc12`
A: 158

Further cases:
Q: Quick check: IC50 of `COc1c(C)n(CCCCCCNc2ccnc3cc(Cl)ccc23)ccc1=O` ?
A: 47

Q: Moving on to `CCc1c(OCc2ccccc2)c(=O)ccn1CCNc1ccnc2cc(Cl)ccc12`
A: 51

Q: Moving on to CCN(CC)CCCC(C)Nc1ccnc2cc(Cl)ccc12 (stereo not given) [CHLOROQUINE]
A: 34

Q: Moving on to `CCc1c(OCc2ccccc2)c(=O)ccn1CCCNc1ccnc2cc(Cl)ccc12`
A: 15

* * *

# Tested on: KB
# procedure-text: Cytotoxicity against human KB cells after 72 hrs by Alamar blue assay
# Assay type: cell-based
# test-context: Homo sapiens, KB, 72 h
In this section we review reported IC50 values for a set of compounds.
Give the quantity in µM, number only.

Q: Quick check: IC50 of `Cc1c(OCc2ccccc2)c(=O)ccn1CCCNc1ccnc2cc(Cl)ccc12` ?
A: 67

Q: Moving on to `Cc1c(OCc2ccccc2)c(=O)ccn1CCCCNc1ccnc2cc(Cl)ccc12`
A: 119

Further cases:
Q: Quick check: IC50 of `Cc1c(OCc2ccccc2)c(=O)ccn1CCNc1ccnc2cc(Cl)ccc12` ?
A: 54

Q: Moving on to `Cc1c(O)c(=O)ccn1CCCCCCNc1ccnc2cc(Cl)ccc12`
A: 4

Q: Moving on to `COc1c(C)n(CCCCNc2ccnc3cc(Cl)ccc23)ccc1=O`
A: 27

Q: Moving on to `CCc1c(OCc2ccccc2)c(=O)ccn1CCCCCCNc1ccnc2cc(Cl)ccc12`
A: 7

Q: Moving on to `CCc1c(O)c(=O)ccn1CCCCNc1ccnc2cc(Cl)ccc12`
A: 76

* * *

# Test system: Plasmodium falciparum
# procedure-text: Antiplasmodial activity against chloroquine-resistant Plasmodium falciparum K1 assessed as parasite growth inhibition after 24 hrs by [3H]-hypoxathine incorporation assay
# Format: functional, organism-based
# test-context: Plasmodium falciparum, K1
experimental-endpoint: pIC50
pIC50 field: float, defined as -log10 of concentration (mol/L).

Q: Quick check: pIC50 of `CCc1c(O)c(=O)ccn1CCCNc1ccnc2cc(Cl)ccc12` ?
A: 6.42

Further cases:
Q: Quick check: pIC50 of `CCc1c(OCc2ccccc2)c(=O)ccn1CCCNc1ccnc2cc(Cl)ccc12` ?
A: 4.15

Q: Moving on to `Cc1c(O)c(=O)ccn1CCNc1ccnc2cc(Cl)ccc12`
A: 4.49

Q: Moving on to `CCc1c(OCc2ccccc2)c(=O)ccn1CCCCCCNc1ccnc2cc(Cl)ccc12`
A: 7.00

Q: Moving on to `Cc1c(O)c(=O)ccn1CCCCNc1ccnc2cc(Cl)ccc12`
A: 7.15

Q: Moving on to `Cc1c(OCc2ccccc2)c(=O)ccn1CCCCCCNc1ccnc2cc(Cl)ccc12`
A: 5.36

* * *

# Test system: KB
# procedure-text: Cytotoxicity against human KB cells after 72 hrs by Alamar blue assay
# Format: cell-based
# test-context: Homo sapiens, KB, 72 h
experimental-endpoint: IC50

Q: Quick check: IC50 of `CCc1c(O)c(=O)ccn1CCCCCCNc1ccnc2cc(Cl)ccc12` ?
A: 44 µM

Further cases:
Q: Quick check: IC50 of `CCc1c(O)c(=O)ccn1CCCNc1ccnc2cc(Cl)ccc12` ?
A: 55 µM

Q: Moving on to `Cc1c(O)c(=O)ccn1CCCCNc1ccnc2cc(Cl)ccc12`
A: 185 µM

Q: Moving on to `CCc1c(OCc2ccccc2)c(=O)ccn1CCCCNc1ccnc2cc(Cl)ccc12`
A: 9 µM

* * *

# System: Plasmodium falciparum
# procedure-text: Antiplasmodial activity against chloroquine-resistant Plasmodium falciparum K1 assessed as parasite growth inhibition after 24 hrs by [3H]-hypoxathine incorporation assay
# Type: functional, organism-based
# test-context: Plasmodium falciparum, K1
experimental-endpoint: pIC50
pIC50 field: float, defined as -log10 of concentration (mol/L).

Some molecules with recorded pIC50:
Q: Quick check: pIC50 of `CCc1c(O)c(=O)ccn1CCCCCCNc1ccnc2cc(Cl)ccc12` ?
A: 6.21

Q: Moving on to `COc1c(C)n(CCCCCCNc2ccnc3cc(Cl)ccc23)ccc1=O`
A: 5.55

Q: Moving on to `Cc1c(OCc2ccccc2)c(=O)ccn1CCNc1ccnc2cc(Cl)ccc12`
A: 5.50

Q: Moving on to `CCc1c(O)c(=O)ccn1CCNc1ccnc2cc(Cl)ccc12`
A: 6.05

Q: Moving on to `COc1c(C)n(CCCCNc2ccnc3cc(Cl)ccc23)ccc1=O`
A: 6.66

Further cases:
Q: Quick check: pIC50 of `CCc1c(OCc2ccccc2)c(=O)ccn1CCNc1ccnc2cc(Cl)ccc12` ?
A: 5.07

Q: Moving on to `CCc1c(OCc2ccccc2)c(=O)ccn1CCCCNc1ccnc2cc(Cl)ccc12`
A: 6.89

Q: Moving on to `Cc1c(OCc2ccccc2)c(=O)ccn1CCCNc1ccnc2cc(Cl)ccc12`
A: 5.45

Q: Moving on to `CCc1c(O)c(=O)ccn1CCCCNc1ccnc2cc(Cl)ccc12`
A: 6.57
